test system: NCI-H650; assay: relative viability (nuclei count vs DMSO), 5 days (fraction); higher = more cells survive; conditions: first compound 0.04 µM
I'd appreciate it if you could supply relative viability values for the items below.
Form: value (number only, do not type unit).

Ask: Could you share which relative viability value was measured for Cc1sc2c(c1C)C(c1ccc(Cl)cc1)=N[C@@H](CC(=O)OC(C)(C)C)c1nnc(C)n1-2 [JQ1] + Cc1cc(Nc2cc(N3CCN(C)CC3)nc(Sc3ccc(NC(=O)C4CC4)cc3)n2)n[nH]1 [Tozasertib] (partner 0.1 µM) ?
Result: 0.657

Ask: Same for Cc1sc2c(c1C)C(c1ccc(Cl)cc1)=N[C@@H](CC(=O)OC(C)(C)C)c1nnc(C)n1-2 [JQ1] + CS(=O)(=O)N1CCN(Cc2cc3nc(-c4cccc5[nH]ncc45)nc(N4CCOCC4)c3s2)CC1 [Pictilisib] (partner 1 µM)
Result: 0.746

Ask: Same for Cc1sc2c(c1C)C(c1ccc(Cl)cc1)=N[C@@H](CC(=O)OC(C)(C)C)c1nnc(C)n1-2 [JQ1] + O=C(c1cc(Cc2n[nH]c(=O)c3ccccc23)ccc1F)N1CCN(C(=O)C2CC2)CC1 [Olaparib] (partner 8 µM)
Result: 0.363

Ask: Same for Cc1sc2c(c1C)C(c1ccc(Cl)cc1)=N[C@@H](CC(=O)OC(C)(C)C)c1nnc(C)n1-2 [JQ1] + C[C@@H](Oc1cc(-c2cnn(C3CCNCC3)c2)cnc1N)c1c(Cl)ccc(F)c1Cl [Crizotinib] (partner 1 µM)
Result: 0.7

====

I'd appreciate it if you could supply relative viability values for the items below.
test system: H3255; assay: relative viability (nuclei count vs DMSO), 5 days (fraction); higher = more cells survive; settings: first compound 500 µM
Form: value (number only, do not type unit).

Ask: What value of relative viability on H3255 does O=C(O)CCCCC(CCSCc1ccccc1)SCc1ccccc1 (configuration not stated) [CPI-613] + CC(=O)Nc1cccc(-n2c(=O)n(C3CC3)c(=O)c3c(Nc4ccc(I)cc4F)n(C)c(=O)c(C)c32)c1 [Trametinib] (partner 0.02 µM) have?
Result: 0.598

Ask: Same for O=C(O)CCCCC(CCSCc1ccccc1)SCc1ccccc1 (configuration not stated) [CPI-613] + COc1cc2c(Oc3ccc(NC(=O)C4(C(=O)Nc5ccc(F)cc5)CC4)cc3F)ccnc2cc1OCCCN1CCOCC1 [Foretinib] (partner 0.25 µM)
Result: 0.785

====

tested on: NCI-H661; experiment: relative viability (nuclei count vs DMSO), 5 days (fraction); higher = more cells survive; settings: first compound 0.5 µM
I'd appreciate it if you could supply relative viability values for the items below.
Form: value (number only, do not type unit).

Ask: Could you share which relative viability value was measured for Nc1ccn([C@@H]2O[C@H](CO)[C@@H](O)[C@@H]2O)c(=O)n1 [Cytarabine] + CC(=O)Nc1cccc(-n2c(=O)n(C3CC3)c(=O)c3c(Nc4ccc(I)cc4F)n(C)c(=O)c(C)c32)c1 [Trametinib] (partner 0.02 µM) ?
Result: 0.385

Ask: Same for COc1cc2nccc(Oc3ccc(NC(=O)Nc4cc(C)on4)c(Cl)c3)c2cc1OC [Tivozanib] + CC(C)C[C@H](NC(=O)[C@H](Cc1ccccc1)NC(=O)c1cnccn1)B(O)O [Bortezomib] (partner 0.002 µM)
Result: 0.85
